Target: T1, DNA polymerase iota catalytic core (hpol ι26-446) (Homo sapiens, UniProt Q9UNA4 26-446)
T1 sequence: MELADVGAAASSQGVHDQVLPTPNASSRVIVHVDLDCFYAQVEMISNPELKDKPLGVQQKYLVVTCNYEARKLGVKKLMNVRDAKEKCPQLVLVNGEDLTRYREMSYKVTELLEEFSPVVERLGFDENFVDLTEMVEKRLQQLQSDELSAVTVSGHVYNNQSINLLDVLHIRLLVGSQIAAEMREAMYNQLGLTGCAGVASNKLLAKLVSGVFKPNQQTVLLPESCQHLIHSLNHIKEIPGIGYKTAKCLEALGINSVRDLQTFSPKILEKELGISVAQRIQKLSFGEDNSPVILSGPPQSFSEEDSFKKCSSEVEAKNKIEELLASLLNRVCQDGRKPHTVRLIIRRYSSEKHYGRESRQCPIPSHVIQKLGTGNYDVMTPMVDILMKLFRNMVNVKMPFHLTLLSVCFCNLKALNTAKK
Assay: fluorescence polarization
assayEndpoint: Kd
Record the result as number plus unit.

-- ask What value of Kd has been recorded for this entry: FAM-13/18mer primer-template DNA (dsDNA) DNA 1: TTTGGGGGAAGGATTC DNA 2: TCACGGAATCCTTCCCCC
-- reply 5.3 nM
